TARGET_OF_ASSAY: T1, human CAPRIN-1 protein on the cell surfaces of human cancer cell lines and in human cancer tissues (human, UniProt Q14444 2-709); also: test concentration or dose not given here
T1 sequence (looked up): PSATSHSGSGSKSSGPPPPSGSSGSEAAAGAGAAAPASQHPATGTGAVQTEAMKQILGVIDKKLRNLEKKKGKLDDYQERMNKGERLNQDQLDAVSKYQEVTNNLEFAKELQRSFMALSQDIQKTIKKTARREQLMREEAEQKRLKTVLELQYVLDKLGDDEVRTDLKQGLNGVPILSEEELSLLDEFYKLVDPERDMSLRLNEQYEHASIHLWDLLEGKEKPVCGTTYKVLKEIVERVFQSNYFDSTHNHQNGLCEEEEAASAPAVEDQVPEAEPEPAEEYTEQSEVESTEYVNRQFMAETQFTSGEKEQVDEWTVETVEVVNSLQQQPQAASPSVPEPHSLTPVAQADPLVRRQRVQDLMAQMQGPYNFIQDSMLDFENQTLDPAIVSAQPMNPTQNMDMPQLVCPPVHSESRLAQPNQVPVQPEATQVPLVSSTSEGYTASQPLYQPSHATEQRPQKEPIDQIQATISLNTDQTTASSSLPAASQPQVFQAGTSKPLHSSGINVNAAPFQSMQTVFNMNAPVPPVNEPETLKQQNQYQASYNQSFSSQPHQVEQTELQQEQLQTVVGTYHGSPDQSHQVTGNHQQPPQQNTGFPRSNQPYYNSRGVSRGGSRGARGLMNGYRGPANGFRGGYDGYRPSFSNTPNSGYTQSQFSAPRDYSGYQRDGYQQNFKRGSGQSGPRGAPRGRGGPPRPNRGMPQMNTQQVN
PROTOCOL_NOTES: cell-based or functional assay
QUANTITY_NAME: cytotoxic activity (ADCC) against KYSE180

Form field cytotoxic activity (ADCC) against KYSE180, entry anti-CAPRIN-1 mouse monoclonal antibody #5 (antibody, V domains shown, Mouse hybridoma antibody; detected with anti-mouse IgG) VH: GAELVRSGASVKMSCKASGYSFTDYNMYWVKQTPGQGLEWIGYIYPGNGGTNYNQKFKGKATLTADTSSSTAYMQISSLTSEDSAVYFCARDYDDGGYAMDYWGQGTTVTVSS VL: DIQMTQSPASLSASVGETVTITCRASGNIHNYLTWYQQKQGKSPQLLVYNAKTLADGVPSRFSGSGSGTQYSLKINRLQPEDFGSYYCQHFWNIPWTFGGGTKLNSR : ≥ 22%

Lab book: cytotoxic activity (ADCC) against KYSE180 of anti-CAPRIN-1 mouse monoclonal antibody #4 (antibody, V domains shown) VH: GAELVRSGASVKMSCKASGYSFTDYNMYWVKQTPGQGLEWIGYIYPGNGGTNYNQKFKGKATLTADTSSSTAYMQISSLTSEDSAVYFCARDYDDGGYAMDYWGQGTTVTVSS VL: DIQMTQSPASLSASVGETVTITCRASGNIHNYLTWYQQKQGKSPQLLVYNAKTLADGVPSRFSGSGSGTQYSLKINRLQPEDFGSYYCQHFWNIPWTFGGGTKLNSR noted as ≥ 22%

So for anti-CAPRIN-1 mouse monoclonal antibody #6 (antibody, V domains shown, Mouse hybridoma antibody; detected with anti-mouse IgG) VH: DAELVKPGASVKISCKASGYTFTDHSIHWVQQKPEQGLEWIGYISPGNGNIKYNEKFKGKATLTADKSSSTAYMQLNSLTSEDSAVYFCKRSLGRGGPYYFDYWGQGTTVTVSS VL: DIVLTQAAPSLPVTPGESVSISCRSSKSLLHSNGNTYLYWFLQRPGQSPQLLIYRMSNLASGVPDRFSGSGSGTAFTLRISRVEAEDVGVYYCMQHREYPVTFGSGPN , the logged cytotoxic activity (ADCC) against KYSE180 turned out to be ≥ 22%

Memo: human-chicken chimeric antibody #1 having the chicken monoclonal antibody #1 variable region (antibody, V domains shown, also called anti-CAPRIN-1 antibody #1; human-chicken chimeric monoclonal antibody (#1); not shown: human IgG1 H-chain constant region; human IgG1 L-chain constant region) VH: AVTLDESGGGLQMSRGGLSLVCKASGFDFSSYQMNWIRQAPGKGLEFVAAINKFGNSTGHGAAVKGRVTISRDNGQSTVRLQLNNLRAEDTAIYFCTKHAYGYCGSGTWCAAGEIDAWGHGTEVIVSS VL: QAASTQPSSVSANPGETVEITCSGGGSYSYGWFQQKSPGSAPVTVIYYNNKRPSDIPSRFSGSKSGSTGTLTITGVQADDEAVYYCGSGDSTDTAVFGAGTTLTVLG , reported cytotoxic activity (ADCC) against KYSE180: 27.6%
